- Test system: Plasmodium berghei
- TEST PROTOCOL: Luciferase/luciferin-expressing antifolate-resistant parasites were used to infect a culture of HepG2 cells that were pre-incubated with compounds. Infected hepatocytes emit light due to the luciferase reaction. Assay results are presented as the percent inhibition of light emission compared to control. […]
- Type: functional
- PARTICULARS: sporozoite, PBLUC_HILL_SLOPE 1.64, PBLUC_R_SQUARED 0.625, read-out: LUCIFERASE INFECTION ASSAY - IC50
pIC50: −log10 of the molar value.

{"COMPOUND STRUCTURE STRING": "CC(C)N1CCC(NC(=O)c2ccc(COc3ccc4ccccc4c3)o2)CC1", "pIC50": 5.63}

====

- Test system: Plasmodium berghei
- TEST PROTOCOL: Luciferase/luciferin-expressing antifolate-resistant parasites were used to infect a culture of HepG2 cells that were pre-incubated with compounds. Infected hepatocytes emit light due to the luciferase reaction. Assay results are presented as the percent inhibition of light emission compared to control. […]
- Assay type: functional
- PARTICULARS: sporozoite, FFLUC_HILL_SLOPE 10.4, FFLUC_R_SQUARED 0.239, PBLUC_HILL_SLOPE 23.3, PBLUC_R_SQUARED 0.151, read-out: LUCIFERASE INFECTION ASSAY - IC50

{"COMPOUND STRUCTURE STRING": "c1ccc(C2(c3ccccc3)CC2(c2ccccc2)c2ccccc2)cc1", "IC50, µM": 8.16}

====

- System: Plasmodium berghei
- TEST PROTOCOL: Luciferase/luciferin-expressing antifolate-resistant parasites were used to infect a culture of HepG2 cells that were pre-incubated with compounds. Infected hepatocytes emit light due to the luciferase reaction. Assay results are presented as the percent inhibition of light emission compared to control. […]
- Format: functional
- PARTICULARS: sporozoite, HEPG2TOX_HILL_SLOPE 15.9, HEPG2TOX_R_SQUARED 0.84, PBLUC_HILL_SLOPE 1.6, PBLUC_R_SQUARED 0.55, read-out: LUCIFERASE INFECTION ASSAY - IC50
pIC50: −log10 of the molar value.
MEASURED ENDPOINT: pIC50

{"COMPOUND STRUCTURE STRING": "CS(=O)(=O)N1CCCc2cc(-c3csc(Nc4ccccn4)n3)ccc21", "SYSTEM UNDER TEST": "Plasmodium berghei", "MEASURED ENDPOINT": "pIC50", "RECORDED RESULT": 6.20}

====

- Tested on: Plasmodium berghei
- TEST PROTOCOL: Luciferase/luciferin-expressing antifolate-resistant parasites were used to infect a culture of HepG2 cells that were pre-incubated with compounds. Infected hepatocytes emit light due to the luciferase reaction. Assay results are presented as the percent inhibition of light emission compared to control. […]
- Assay type: functional
- PARTICULARS: sporozoite, read-out: LUCIFERASE INFECTION ASSAY - IC90

{"COMPOUND": "CCOc1ccc(C2NC(=O)NC(C)=C2C(=O)OCC2CCCO2)cc1OC (stereo not given)", "SYSTEM UNDER TEST": "Plasmodium berghei", "QUALIFYING SIGN": ">", "IC90 / µM": 8.45}
{"COMPOUND": "N#Cc1cccc(/C=C/C(=O)c2ccc(S(=O)(=O)N3CCCC3)cc2)c1", "SYSTEM UNDER TEST": "Plasmodium berghei", "QUALIFYING SIGN": ">", "IC90 / µM": 10}
{"COMPOUND": "O=C(COC(=O)C1Cc2ccccc2CN1S(=O)(=O)/C=C/c1ccccc1)c1ccccc1 (stereo not given)", "SYSTEM UNDER TEST": "Plasmodium berghei", "QUALIFYING SIGN": ">", "IC90 / µM": 10}
{"COMPOUND": "c1ccc2cc(OCCNc3ncnc4sccc34)ccc2c1", "SYSTEM UNDER TEST": "Plasmodium berghei", "QUALIFYING SIGN": "=", "IC90 / µM": 3.89}
{"COMPOUND": "CN(C)CCNC(=O)c1ccc(-c2cn3c(-c4ccc(Oc5ccccc5)cc4)cnc3cn2)cc1", "SYSTEM UNDER TEST": "Plasmodium berghei", "QUALIFYING SIGN": ">", "IC90 / µM": 6.91}
{"COMPOUND": "O=C1/C(=C/Nc2cccc(O)c2)c2ccccc2C(=O)N1Cc1ccccc1", "SYSTEM UNDER TEST": "Plasmodium berghei", "QUALIFYING SIGN": "=", "IC90 / µM": 9.61}
{"COMPOUND": "COCCNC(=S)Nc1ccccc1CC(c1c[nH]c2ccccc12)c1c[nH]c2ccccc12", "SYSTEM UNDER TEST": "Plasmodium berghei", "QUALIFYING SIGN": ">", "IC90 / µM": 10}
{"COMPOUND": "CS(=O)(=O)c1ncc(Cl)c(C(=O)C(C#N)c2ccc3ccccc3n2)n1 (stereo not given)", "SYSTEM UNDER TEST": "Plasmodium berghei", "QUALIFYING SIGN": "=", "IC90 / µM": 4.88}
{"COMPOUND": "COc1ccc(NC(=O)C2Cc3c(-c4cccc(C(C)=O)c4)ccnc3O2)cc1OC (stereo not given)", "SYSTEM UNDER TEST": "Plasmodium berghei", "QUALIFYING SIGN": ">", "IC90 / µM": 7.89}
{"COMPOUND": "O=S(=O)(CCN1CCC(C(c2ccccc2)c2ccccc2)CC1)c1ccc(F)cc1", "SYSTEM UNDER TEST": "Plasmodium berghei", "QUALIFYING SIGN": "=", "IC90 / µM": 5.93}
